target: Histone deacetylase 1 (Homo sapiens, UniProt Q13547); assay: Inhibition of human recombinant HDAC1 using Ac-Leu-Gly-Lys (Ac)-AMC as substrate preincubated for 10 mins followed by substrate addition and measured after 45 mins by TECAN microtiter plate reader analysis
Sequence (Q13547 whole entry): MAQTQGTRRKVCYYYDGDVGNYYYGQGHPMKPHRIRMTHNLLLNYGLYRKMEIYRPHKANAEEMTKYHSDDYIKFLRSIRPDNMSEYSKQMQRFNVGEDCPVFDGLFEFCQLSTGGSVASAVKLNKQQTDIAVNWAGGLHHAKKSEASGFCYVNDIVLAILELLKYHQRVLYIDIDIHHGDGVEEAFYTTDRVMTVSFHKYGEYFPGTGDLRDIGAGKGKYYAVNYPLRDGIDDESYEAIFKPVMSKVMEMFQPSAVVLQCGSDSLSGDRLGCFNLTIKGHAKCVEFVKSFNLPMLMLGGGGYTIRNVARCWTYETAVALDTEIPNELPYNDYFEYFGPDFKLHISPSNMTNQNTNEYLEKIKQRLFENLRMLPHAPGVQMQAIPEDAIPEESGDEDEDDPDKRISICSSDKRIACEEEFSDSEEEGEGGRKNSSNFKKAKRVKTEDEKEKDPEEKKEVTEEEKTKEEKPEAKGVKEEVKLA
readout: pIC50
In simple prose, pIC50 is minus the logarithm base ten of a concentration in moles per litre.

The examples below pair each entry with its known result.
CCCNNC(=O)c1cnc(NCCNCc2ccc(-c3cccc(-c4ccccc4)c3C)nc2OC)cn1 = 5.67
CCCNNC(=O)CCCNCc1ccc(-c2cccc(-c3ccccc3)c2C)nc1OC = 5.65
CCCNNC(=O)CCCCCNCc1ccc(-c2cccc(-c3ccccc3)c2C)nc1OC = 6.27

query: Returns the measured pIC50 for the input compound. Input: `CCCNNC(=O)CCCCNCc1ccc(-c2cccc(-c3ccccc3)c2C)nc1OC`
result: 6.34

Hello, the source for this data is ChEMBL document CHEMBL6109156, in case you need it.
